tested on: A549 NSCLC; assay: NCI tumour cell line growth inhibition, 48 h
OUTCOME MEASURE: TGI

Input: // Input: CS(=O)(=O)Nc1cncc(-c2ccc3ncnc(Nc4ccc(F)c(Cl)c4)c3c2)c1 . Output its TGI only.
Output: 17.4 µM

Input: For the compound O=P12N(CCN1c1ccccc1)CCN2c1ccccc1 , report TGI.
Output: > 100 µM

Input: Identify measured TGI corresponding to N=C1OC(CN2CCN(c3ccccc3)CC2)CN1C(=S)Nc1ccccc1 (centres undefined)
Output: > 100 µM

Input: Identify TGI associated with the compound N.N.N.N.N.[Co+3].[I-].[N-]=[N+]=[N-]
Output: > 100 µM

Input: Provide only the value of recorded TGI for CC1=Nc2ccccc2S/C1=C(/C)NNS(=O)(=O)c1ccc(C)cc1
Output: > 100 µM

Input: Consider the compound CCc1ccccc1N=NC(=O)NNc1ccccc1CC and give its recorded TGI.
Output: 31.9 µM

Input: Output measured TGI for this item: CCCCCCCCCCCCCCCCCc1cccc(OCOCCOC)c1C(=O)O
Output: 42.1 µM

Input: Name the recorded TGI of the compound listed here: CC(O)(Cc1ccccc1C#N)Cc1ccccc1C#N
Output: > 100 µM

Input: Specify TGI for CC(=O)Nc1ccc(NCC(=O)Nn2cnc3ccc(S(=O)(=O)Nc4ccc(NC(C)=O)cc4)cc3c2=O)cc1 and stop.
Output: > 100 µM

Input: Output TGI of O=C(CC(=O)N1N=C(N2CCCCC2)CC1c1ccccc1)Nc1ccccc1 (centres undefined)
Output: > 100 µM

Input: Dear colleague, please send me the reported TGI for CC(C)C1C(=O)N(c2c(F)c(F)c(F)c(F)c2F)C(=S)N1CCS(=O)c1ccccc1 (centres undefined) when you can.
Output: 40.1 µM

Input: Input CCSCC1CC(O)(c2ccccc2)CC(c2ccc(F)cc2)O1 (centres undefined) , output reported TGI.
Output: 11 µM

Input: Please look at this compound and report its TGI: COc1cc(/C=C\c2cc(OC)c(OC)c(OC)c2)cc(N/C=C\C(=O)c2ccc(OC(F)(F)F)cc2)c1OC
Output: > 100 µM

Input: Retrieve TGI measured for COc1ccc(N=N/C(=N/NC(=O)c2ccc(C)cc2)c2ccc(N(CCC#N)CCC#N)cc2OC)cc1 and print it.
Output: > 100 µM

Input: For the compound COc1ccc(C2=C(Cl)c3cc(OC)c(OC)cc3C2OC)cc1OC (centres undefined) , report TGI.
Output: > 100 µM

Input: Consider the compound Cc1cc2nc3c4cc(O)ccc4n(CCN(C)C)c3nc2cc1C and give its recorded TGI.
Output: 5.07 µM

Input: Query TGI for COc1cc(C2Cc3ncccc3-c3[nH]c(=O)c4cccnc4c32)cc(OC)c1OC (centres undefined)
Output: > 100 µM

Input: Tell me measured TGI for COc1ccc(C(c2cc(OC)c(OC)c(OC)c2)n2ccnc2)cc1O (centres undefined) please.
Output: > 100 µM

Input: Annotate the compound CCN(CC)c1ccc(/C=N/NC(=O)CSc2nc3ccccc3c(=O)n2CCc2ccc(S(N)(=O)=O)cc2)c(O)c1 with its measured TGI.
Output: > 100 µM

---

Exercise: for every item that follows, state its recorded TGI.
system: SF-268 CNS; assay: NCI tumour cell line growth inhibition, 48 h

Input: Please give the documented TGI of COc1ccc2c(c1OC)C[C@@H]1c3c(cc4c(c3-2)OCO4)CCN1C
Output: > 100 µM

Input: Output measured TGI for this item: O=C1C2Nc3ccccc3SC2C(=O)N1c1ccc(Br)cc1 (stereo not given)
Output: > 100 µM

Input: Provide measured TGI value, entry: CCN(CC)C(=O)Cc1c(C(=O)N(CC)CC)c(=O)nc2sccn12
Output: > 100 µM

Input: Specify measured TGI for Cc1ccc(NC(Nc2ccc(C)cc2C)=C(C(Cl)=C(Cl)Cl)[N+](=O)[O-])c(C)c1 .
Output: 33.2 µM

Input: Indicate the recorded TGI value for this molecule: Cn1cnc([N+](=O)[O-])c1Sc1nc(N)nc2c1ncn2C1OC(CO)C(O)C1O (stereo not given)
Output: > 100 µM
